Header: pKi / Cannabinoid receptor 1 (Homo sapiens, UniProt P21554) / multiple publications
pKi: −log10 of the molar value.

• CCC(C)(O)NC(=O)CCC(=O)Nc1cccc2ccccc12 (centres undefined) = < 5.00
• C=CCc1ccc(OCC)c(-c2ccc(OCC)c(CC=C)c2)c1 = < 5.52
• C=CCc1ccc(O)c(-c2ccc(O)c(/C=C/C)c2)c1 = < 5.30
• Cc1ccc(/C=C/C(=O)CCC(=O)Nc2ccc(O)cc2)cc1 = < 5.00

Cannabinoid receptor 1 (Homo sapiens, UniProt P21554) / pKi / CCC(C)(O)NC(=O)CCC(=O)/C=C/c1ccc(OC)c(OC)c1 (centres undefined) : value?
< 5.00

Cannabinoid receptor 1 (Homo sapiens, UniProt P21554) / pKi / O=C(/C=C/c1ccccc1)CCC(=O)NC(CO)(CO)CO : value?
< 5.00

Cannabinoid receptor 1 (Homo sapiens, UniProt P21554) / pKi / CCCCCCCCC=CCCCCCCCC(=O)NCc1ccc(O)c(OC)c1 : value?
< 5.00

Cannabinoid receptor 1 (Homo sapiens, UniProt P21554) / pKi / CCC(C)(O)NC(=O)CCC(=O)/C=C/c1ccccc1 (centres undefined) : value?
< 5.00

Cannabinoid receptor 1 (Homo sapiens, UniProt P21554) / pKi / CCOC(=O)CNC(=O)CCC(=O)Nc1cccc2ccccc12 : value?
< 5.00
